Test system: HIV-1 L100I
Test: microbe, parasite or virus in culture
Type: cell-based
Conditions: resistance fold, EC50 (mutant strain)/EC50 (WT strain)
Readout kind: RF L100I
When you answer, write just the number.

[
  {
    "Compound": "Cc1cc(C#N)cc(C)c1Oc1nc(NC2CCN(c3cccc(C(N)=O)c3)CC2)nc2c1SCCC2 [27b]",
    "RF L100I": 3.5
  }
]

Recall and state the measured RF L100I for Cc1cc(C#N)cc(C)c1Oc1nc(Nc2ccc(C#N)cc2)nc(N)c1Br [ETR, etravirine, reference compound] .
3.2

Recall and state the measured RF L100I for Cc1cc(C#N)cc(C)c1Oc1nc(Nc2ccc(C#N)cc2)nc2c1S(=O)(=O)CCC2 [compound 16b] .
15.1

Recall and state the measured RF L100I for Cc1cc(C#N)cc(C)c1Oc1nc(NC2CCN(Cc3ccc(NS(C)(=O)=O)cc3)CC2)nc2c1SCCC2 [23g] .
11.8

====

Listing of recorded SI RES056 by entry.
Test system: HIV-1 K103N + Y181C (RES056)
Test: microbe, parasite or virus in culture
Assay type: cell-based
Details: selectivity index, ratio of CC50/EC50
When you answer, write just the number.

[
  {
    "Compound": "Cc1cc(/C=C/C#N)cc(C)c1Oc1nc(NC2CCN(Cc3ccc(S(N)(=O)=O)cc3)CC2)nc2c1SCCC2 [compound 23h]",
    "Measurement target": "HIV-1 K103N + Y181C (RES056)",
    "Readout kind": "SI RES056",
    "Quantitative result": 218
  },
  {
    "Compound": "Cc1cc(C#N)cc(C)c1Oc1nc(NC2CCN(c3cccc(C(N)=O)c3)CC2)nc2c1SCCC2 [27b]",
    "Measurement target": "HIV-1 K103N + Y181C (RES056)",
    "Readout kind": "SI RES056",
    "Quantitative result": 244
  },
  {
    "Compound": "Cc1cc(C#N)cc(C)c1Oc1nc(Nc2ccc(C#N)cc2)nc2c1SCCC2 [compound 15a]",
    "Measurement target": "HIV-1 K103N + Y181C (RES056)",
    "Readout kind": "SI RES056",
    "Quantitative result": 53
  },
  {
    "Compound": "Cc1cc(/C=C/C#N)cc(C)c1Oc1nc(Nc2ccc(C#N)cc2)nc2c1SCCC2 [15b]",
    "Measurement target": "HIV-1 K103N + Y181C (RES056)",
    "Readout kind": "SI RES056",
    "Quantitative result": 208
  },
  {
    "Compound": "Cc1cc(C#N)cc(C)c1Oc1nc(Nc2ccc(C#N)cc2)nc2c1S(=O)(=O)CCC2 [compound 16b]",
    "Measurement target": "HIV-1 K103N + Y181C (RES056)",
    "Readout kind": "SI RES056",
    "Quantitative result": 381
  }
]

Recall and state the measured SI RES056 for Cc1cc(C#N)cc(C)c1Oc1nc(NC2CCN(Cc3ccc(N)cc3)CC2)nc2c1SCCC2 [23f] .
18

====

Tested on: main CYP enzymes (CYP1A2, CYP2C9, CYP2C19, CYP2D6, CYP3A4; range over isoforms)
Assay: Cytochrome P450 inhibition assay, summary over isoforms
Format: in vitro ADME
Conditions: human, human liver microsomes
Readout kind: IC50 at 10 min

Recall and state the measured IC50 at 10 min for Cc1cc(/C=C/C#N)cc(C)c1Oc1nc(NC2CCN(Cc3ccc(S(N)(=O)=O)cc3)CC2)nc2c1SCCC2 [compound 23h] .
3.41 to 50 µM
